All figures here come from patent US20100069632A1.

assay: Thermal stability test at 105° C., impurity content and color change; type: physicochemical; details: thermal stability test; initial
Counter-ions that a name gives are not always drawn.
experimental-endpoint: Impurity content (%), Initial

Consider the molecule CCCOc1ccc(S(=O)(=O)N2CCN(CCO)CC2)cc1-c1nc2c(CCC)cn(CC)c2c(=O)[nH]1 [SK-3530 citrate salt] and give its measured Impurity content (%), Initial.
0.12%

Quick check: Impurity content (%), Initial of CCCOc1ccc(S(=O)(=O)N2CCN(CCO)CC2)cc1-c1nc2c(CCC)cn(CC)c2c(=O)[nH]1 [SK-3530 fumarate salt] ?
0.02%

Given the molecule CCCOc1ccc(S(=O)(=O)N2CCN(CCO)CC2)cc1-c1nc2c(CCC)cn(CC)c2c(=O)[nH]1.Cl.Cl [SK-3530 dihydrochloride salt, reference compound] , what is its reported Impurity content (%), Initial?
0.20%

Which measured Impurity content (%), Initial value corresponds to CCCOc1ccc(S(=O)(=O)N2CCN(CCO)CC2)cc1-c1nc2c(CCC)cn(CC)c2c(=O)[nH]1 [SK-3530 hemitartrate salt] ?
0.07%

Record request: Impurity content (%), Initial value, item CCCOc1ccc(S(=O)(=O)N2CCN(CCO)CC2)cc1-c1nc2c(CCC)cn(CC)c2c(=O)[nH]1 [SK-3530 gentisate salt]
0.09%

Please look up its Impurity content (%), Initial: CCCOc1ccc(S(=O)(=O)N2CCN(CCO)CC2)cc1-c1nc2c(CCC)cn(CC)c2c(=O)[nH]1 [SK-3530 maleate salt]
0.12%

----------
Assignment: determine reported Impurity content (%), 48 hours for the given compounds.
assay: Thermal stability test at 105° C., impurity content and color change; assay type: physicochemical; conditions: dryer at 105° C.; 48 hours
Structures can show the parent of a compound that is named as a salt.
Write the value in % as a bare number.

Report Impurity content (%), 48 hours for CCCOc1ccc(S(=O)(=O)N2CCN(CCO)CC2)cc1-c1nc2c(CCC)cn(CC)c2c(=O)[nH]1 [SK-3530 hemitartrate salt] please.
0.70

For CCCOc1ccc(S(=O)(=O)N2CCN(CCO)CC2)cc1-c1nc2c(CCC)cn(CC)c2c(=O)[nH]1 [SK-3530 citrate salt] , what is its reported Impurity content (%), 48 hours?
1.81

Look up Impurity content (%), 48 hours: CCCOc1ccc(S(=O)(=O)N2CCN(CCO)CC2)cc1-c1nc2c(CCC)cn(CC)c2c(=O)[nH]1.Cl.Cl [SK-3530 dihydrochloride salt, reference compound]
14.37

Consider the compound CCCOc1ccc(S(=O)(=O)N2CCN(CCO)CC2)cc1-c1nc2c(CCC)cn(CC)c2c(=O)[nH]1 [SK-3530 fumarate salt] and give its measured Impurity content (%), 48 hours.
0.61

Reported Impurity content (%), 48 hours, compound CCCOc1ccc(S(=O)(=O)N2CCN(CCO)CC2)cc1-c1nc2c(CCC)cn(CC)c2c(=O)[nH]1 [SK-3530 maleate salt] : ____
0.74

Returns the measured Impurity content (%), 48 hours for the input compound. Input: CCCOc1ccc(S(=O)(=O)N2CCN(CCO)CC2)cc1-c1nc2c(CCC)cn(CC)c2c(=O)[nH]1 [SK-3530 gentisate salt]
0.13

----------
test: Photostability test (UV and visible light), impurity content and color change; assay type: physicochemical; conditions: total visible light radiation 1080 klux/m^2h; 25° C., 60% humidity, Petri dish
Where a name gives a salt, the structure may show the parent alone.
experimental-endpoint: Impurity content (%), Visible
The reply should contain only the number, in %.

Fill blank: measured Impurity content (%), Visible of the compound CCCOc1ccc(S(=O)(=O)N2CCN(CCO)CC2)cc1-c1nc2c(CCC)cn(CC)c2c(=O)[nH]1 [SK-3530 maleate salt] is ____.
0.14

Please give the measured Impurity content (%), Visible for this compound: CCCOc1ccc(S(=O)(=O)N2CCN(CCO)CC2)cc1-c1nc2c(CCC)cn(CC)c2c(=O)[nH]1.Cl.Cl [SK-3530 dihydrochloride salt, reference compound]
1.37

Reported Impurity content (%), Visible for CCCOc1ccc(S(=O)(=O)N2CCN(CCO)CC2)cc1-c1nc2c(CCC)cn(CC)c2c(=O)[nH]1 [SK-3530 gentisate salt] : what is it?
0.17

// query Impurity content (%), Visible value for entry CCCOc1ccc(S(=O)(=O)N2CCN(CCO)CC2)cc1-c1nc2c(CCC)cn(CC)c2c(=O)[nH]1 [SK-3530 hemitartrate salt]
0.21

Which value of Impurity content (%), Visible has been reported for CCCOc1ccc(S(=O)(=O)N2CCN(CCO)CC2)cc1-c1nc2c(CCC)cn(CC)c2c(=O)[nH]1 [SK-3530 citrate salt] in the records?
0.14

Field request: Impurity content (%), Visible | item: CCCOc1ccc(S(=O)(=O)N2CCN(CCO)CC2)cc1-c1nc2c(CCC)cn(CC)c2c(=O)[nH]1 [SK-3530 fumarate salt]
0.07

----------
assay: Photostability test (UV and visible light), impurity content and color change; format: physicochemical; conditions: total UV radiation 200 W·h/m^2; 25° C., 60% humidity, Petri dish
Structures can show the parent of a compound that is named as a salt.
Assignment: determine reported Impurity content (%), UV for the given compounds.
// note: answer is a bare numeric in %

What value of Impurity content (%), UV has been recorded for this entry: CCCOc1ccc(S(=O)(=O)N2CCN(CCO)CC2)cc1-c1nc2c(CCC)cn(CC)c2c(=O)[nH]1 [SK-3530 fumarate salt]
0.08

Entry CCCOc1ccc(S(=O)(=O)N2CCN(CCO)CC2)cc1-c1nc2c(CCC)cn(CC)c2c(=O)[nH]1 [SK-3530 hemitartrate salt] : reported Impurity content (%), UV = ?
0.52

Using the record for CCCOc1ccc(S(=O)(=O)N2CCN(CCO)CC2)cc1-c1nc2c(CCC)cn(CC)c2c(=O)[nH]1.Cl.Cl [SK-3530 dihydrochloride salt, reference compound] , report its Impurity content (%), UV.
5.92

Impurity content (%), UV lookup needed for CCCOc1ccc(S(=O)(=O)N2CCN(CCO)CC2)cc1-c1nc2c(CCC)cn(CC)c2c(=O)[nH]1 [SK-3530 maleate salt] , thanks.
0.35

Which Impurity content (%), UV is listed for CCCOc1ccc(S(=O)(=O)N2CCN(CCO)CC2)cc1-c1nc2c(CCC)cn(CC)c2c(=O)[nH]1 [SK-3530 gentisate salt] ?
0.36

Requested field: Impurity content (%), UV. Item: CCCOc1ccc(S(=O)(=O)N2CCN(CCO)CC2)cc1-c1nc2c(CCC)cn(CC)c2c(=O)[nH]1 [SK-3530 citrate salt]
0.37
